# test.system: Tubulin (Homo sapiens) (UniProt P68371+Q9H4B7+P0DPH7+P68366+Q13509+Q71U36+P04350+Q3ZCM7+P07437+P68363+Q9BQE3+Q6PEY2+Q13885+Q9BVA1+Q9BUF5)
# run.description: Inhibition of [3H]colchicine binding to tubulin (unknown origin) at 5 uM after 10 mins relative to control
# Type: protein-complex assay
Rule: inhibition under 90% gives class 0, otherwise class 1.

**Q:** Is reported inhibition greater than or equal to 90% here: "COc1cc(Sc2c[nH]c3cc(-c4ccco4)ccc23)cc(OC)c1OC"
**A:** class 1

**Q:** Check this compound for inhibition at or above 90%: "COc1cc(Sc2c[nH]c3ccc(-c4ccco4)cc23)cc(OC)c1OC"
**A:** class 0

**Q:** Item "COc1cc(C(=O)c2c[nH]c3c(-c4cccs4)cccc23)cc(OC)c1OC" with inhibition of 90% or above?
**A:** class 0

**Q:** Tell me whether inhibition is at least 90% here: "COc1cc(Sc2c[nH]c3ccc(-c4cccs4)cc23)cc(OC)c1OC"
**A:** class 0

**Q:** Does the reported inhibition for "COc1cc(Sc2c[nH]c3cc(-c4cccs4)ccc23)cc(OC)c1OC" fall at or above the 90% mark?
**A:** class 1

**Q:** Reported inhibition reaches at least 90% for "COc1cc(C(=O)c2c[nH]c3c(-c4ccco4)cccc23)cc(OC)c1OC" ?
**A:** class 0

**Q:** Is reported inhibition greater than or equal to 90% here: "COc1cc(C(=O)c2c[nH]c3cc(-c4ccoc4)ccc23)cc(OC)c1OC"
**A:** class 1

**Q:** Form field: inhibition at least 90%? Entry: "COc1cc(C(=O)c2c[nH]c3cc(-c4cccs4)ccc23)cc(OC)c1OC"
**A:** class 1

**Q:** # check: inhibition of "COc1cc(Sc2c[nH]c3ccc(-c4ccoc4)cc23)cc(OC)c1OC" is greater than or equal to 90%
**A:** class 0

**Q:** Is it the case that "COc1cc(Sc2c[nH]c3c(-c4ccoc4)cccc23)cc(OC)c1OC" has inhibition reaching or exceeding 90%?
**A:** class 0

**Q:** Has "COc1cc(C(=O)c2c[nH]c3c(-c4ccoc4)cccc23)cc(OC)c1OC" a recorded inhibition greater than or equal to 90%?
**A:** class 0

**Q:** Can "COc1cc(Sc2c[nH]c3c(-c4ccco4)cccc23)cc(OC)c1OC" be said to have inhibition at or above 90%?
**A:** class 1

**Q:** Could you tell me if the measured inhibition of "COc1cc(C(=O)c2c[nH]c3cc(-c4ccco4)ccc23)cc(OC)c1OC" reaches 90% or more?
**A:** class 1

----------
Documented IC50 across a set of compounds
# test.system: Tubulin
# run.description: Inhibition of tubulin polymerization (unknown origin) preincubated for 15 mins followed by GTP addition measured for 20 mins by spectrophotometric method

**Q:** Item "COc1cc(Sc2c[nH]c3cc(-c4ccsc4)ccc23)cc(OC)c1OC" with Tubulin - IC50?
**A:** 580 nM

----------
inhibition overview
# test.system: Tubulin (Homo sapiens) (UniProt P68371+Q9H4B7+P0DPH7+P68366+Q13509+Q71U36+P04350+Q3ZCM7+P07437+P68363+Q9BQE3+Q6PEY2+Q13885+Q9BVA1+Q9BUF5)
# run.description: Inhibition of [3H]colchicine binding to tubulin (unknown origin) at 5 uM after 10 mins relative to control
# Format: protein-complex assay
Record the result as number plus unit.

# example entries with known answers
COc1cc(Sc2c(-c3cccs3)[nH]c3ccccc23)cc(OC)c1OC
88%
COc1cc(Sc2c[nH]c3c(-c4cccs4)cccc23)cc(OC)c1OC
89%
COc1cc(Sc2c[nH]c3cc(-c4ccoc4)ccc23)cc(OC)c1OC
90%
COc1cc(Sc2c[nH]c3ccc(-c4ccsc4)cc23)cc(OC)c1OC
72%

**Q:** Value lookup for inhibition; key = "COc1cc(Sc2c[nH]c3cc(-c4ccsc4)ccc23)cc(OC)c1OC"
**A:** 97%

**Q:** May I ask what inhibition has been recorded for "COc1cc(C(=O)c2c[nH]c3cc(-c4ccsc4)ccc23)cc(OC)c1OC" ?
**A:** 94%

**Q:** Bench note: what inhibition did "COc1cc(Sc2c[nH]c3c(-c4ccsc4)cccc23)cc(OC)c1OC" show?
**A:** 77%

----------
# test.system: Tubulin
# run.description: Inhibition of tubulin polymerization (unknown origin) preincubated for 15 mins followed by GTP addition measured for 20 mins by spectrophotometric method
readout.kind: pIC50
Notebook: values listed as pIC50 are -log10 of the concentration (mol/L).

COc1cc(Sc2c[nH]c3cc(-c4ccco4)ccc23)cc(OC)c1OC
6.23
COc1cc(C(=O)c2c[nH]c3c(-c4cccs4)cccc23)cc(OC)c1OC
5.59
COc1cc(Sc2c[nH]c3ccc(-c4ccoc4)cc23)cc(OC)c1OC
5.74
COc1cc(Sc2c(-c3cccs3)[nH]c3ccccc23)cc(OC)c1OC
6.13

**Q:** Look up pIC50: "COc1cc(Sc2c[nH]c3c(-c4ccoc4)cccc23)cc(OC)c1OC"
**A:** 5.89

**Q:** Look up pIC50: "COc1cc(C(=O)c2c[nH]c3c(-c4ccoc4)cccc23)cc(OC)c1OC"
**A:** 5.52

**Q:** # query: pIC50 of entry "COc1cc(Sc2c[nH]c3c(-c4ccco4)cccc23)cc(OC)c1OC"
**A:** 6.19

----------
# test.system: Tubulin
# run.description: Inhibition of tubulin polymerization (unknown origin) preincubated for 15 mins followed by GTP addition measured for 20 mins by spectrophotometric method
Listing of recorded IC50 by entry.
The reply should be a number in nM, with the unit left off.

COc1cc(Sc2c[nH]c3c(-c4ccsc4)cccc23)cc(OC)c1OC
1300
COc1cc(C(=O)c2c[nH]c3cc(-c4ccsc4)ccc23)cc(OC)c1OC
600
COc1cc(C(=O)c2c[nH]c3cc(-c4ccco4)ccc23)cc(OC)c1OC
760
COc1cc(C(=O)c2c[nH]c3cc(-c4ccoc4)ccc23)cc(OC)c1OC
610

**Q:** Notebook: pull reported IC50 for Tubulin, entry "COc1cc(C(=O)c2c[nH]c3cc(-c4cccs4)ccc23)cc(OC)c1OC"
**A:** 380

**Q:** Value wanted: IC50 (Tubulin) of entry "COc1cc(Sc2c[nH]c3ccc(-c4ccsc4)cc23)cc(OC)c1OC"
**A:** 1700

**Q:** What value of IC50 on Tubulin does "COc1cc(Sc2c[nH]c3c(-c4cccs4)cccc23)cc(OC)c1OC" have?
**A:** 570

**Q:** Any idea what IC50 came out for "COc1cc(C(=O)c2c[nH]c3c(-c4ccsc4)cccc23)cc(OC)c1OC" on Tubulin?
**A:** 6200

**Q:** Notebook: pull reported IC50 for Tubulin, entry "COc1cc(Sc2c[nH]c3ccc(-c4cccs4)cc23)cc(OC)c1OC"
**A:** 1300

**Q:** Enter reported IC50 observed with Tubulin for "COc1cc(Sc2c[nH]c3ccc(-c4ccco4)cc23)cc(OC)c1OC"
**A:** 870

**Q:** Write down the reported IC50 of "COc1cc(Sc2c[nH]c3cc(-c4cccs4)ccc23)cc(OC)c1OC" , test system: Tubulin.
**A:** 470

**Q:** Query IC50 on Tubulin for "COc1cc(Sc2c[nH]c3cc(-c4ccoc4)ccc23)cc(OC)c1OC"
**A:** 2300
